# ASSAY_TARGET: human SGLT1 (Homo sapiens)
# Construct: expressed in transfected cells
# PROTOCOL_NOTES: SGLT1 assay: Na-dependent 14C-AMG uptake in CHO-K1 cells stably expressing human SGLT1
# Format: cell-based
# MEASUREMENT_PARAMETERS: @ 0.3 μM
Record Yes whenever SGLT1 %-inhibition is at 40 % @ 0.3 μM or higher; record No when lower.

Example cases with answers are listed next.
OC[C@H]1O[C@@H](c2cc(Cc3ccc4c(c3)SCCO4)c(Cl)c3c2OCC3)[C@H](O)[C@@H](O)[C@@H]1F [Compound 127] = Yes
Cc1c(Cc2ccc3c(c2)CCCO3)cc([C@@H]2O[C@H](CO)[C@@H](F)[C@H](O)[C@H]2O)c2c1CCO2 [Compound 130] = Yes
COc1cc(Cl)c(Cc2cc3c(s2)CCN(C#N)C3)cc1[C@@H]1O[C@H](CO)[C@@H](F)[C@H](O)[C@H]1O [Compound 99] = No
CC1COc2c(Cc3ccc4c(c3)OCCO4)cc(C3OC(CO)C(F)C(O)C3O)cc21 (mixture of isomers) [Compound 95] = Yes
COc1c([C@@H]2O[C@H](CO)[C@@H](F)[C@H](O)[C@H]2O)cc(Cc2ccc(OCF)cc2)c2c1CCO2 [Compound 142] = Yes
COc1cc(C)c(Cc2cc3c(s2)CCN(C(=O)C2CCCC2)C3)cc1[C@@H]1O[C@H](CO)[C@@H](F)[C@H](O)[C@H]1O [Compound 91] = No

(Q) Can CCc1ccc([C@@H]2O[C@H](CO)[C@@H](F)[C@H](O)[C@H]2O)cc1Cc1ccc2c(c1)OC(F)(F)O2 [Compound 159] be said to have SGLT1 %-inhibition at or above 40 % @ 0.3 μM?
(A) No

(Q) Threshold query (SGLT1 %-inhibition >= 40 % @ 0.3 μM) on [2H]C([2H])(c1ccc2c(c1)CCCO2)c1cc([C@@H]2O[C@H](CO)[C@@H](F)[C@H](O)[C@H]2O)ccc1OC [Compound 171]
(A) No

(Q) Does the molecule COC(=O)N1CCc2sc(Cc3cc([C@@H]4O[C@H](CO)[C@@H](F)[C@H](O)[C@H]4O)ccc3Cl)cc2C1 [Compound 80] have recorded SGLT1 %-inhibition that is 40 % @ 0.3 μM or more?
(A) No

(Q) Say whether CC1(CO)COc2c(Cc3ccc4c(c3)OCCO4)cc([C@@H]3O[C@H](CO)[C@@H](F)[C@H](O)[C@H]3O)cc21 (stereo partly shown) [Compound 88] shows SGLT1 %-inhibition of 40 % @ 0.3 μM or more.
(A) Yes

(Q) Determine whether measured SGLT1 %-inhibition meets or exceeds 40 % @ 0.3 μM for [2H]C1([2H])Oc2ccc(Cc3cc([C@@H]4O[C@H](CO)[C@@H](F)[C@H](O)[C@H]4O)cc4c3CCO4)cc2OC1([2H])[2H] [Compound 181]
(A) Yes

(Q) Record OCCC1COc2c(Cc3ccc4c(c3)OCCO4)cc([C@@H]3O[C@H](CO)[C@@H](F)[C@H](O)[C@H]3O)cc21 (stereo partly shown) [Compound 93] ; criterion: SGLT1 %-inhibition no lower than 40 % @ 0.3 μM. Met?
(A) No

(Q) Exam item: decide whether the reported SGLT1 %-inhibition for Cc1cc(N2CCc3sc(Cc4cc([C@@H]5O[C@H](CO)[C@@H](F)[C@H](O)[C@H]5O)ccc4C)cc3C2)c(C)s1 [Compound 138] is at least 40 % @ 0.3 μM.
(A) No

----------
# ASSAY_TARGET: UniProtKB P31639
# PROTOCOL_NOTES: SGLT2 assay: Na-dependent 14C-AMG uptake in CHO-K1 cells stably expressing human SGLT2
# MEASUREMENT_PARAMETERS: average if tested more than once
READOUT_KIND: IC50 (nM)
Supply the numeric figure in nM, leaving out any unit text.

Consider the following illustrative entries.
OC[C@H]1O[C@@H](c2cc(Cc3cc4ccccc4s3)c(Cl)cc2O)[C@H](O)[C@@H](O)[C@@H]1F [Compound 7] = 6
Cc1cc(O)c([C@@H]2O[C@H](CO)[C@@H](F)[C@H](O)[C@H]2O)cc1Cc1cc2c(s1)CCN(C(=O)c1nccs1)C2 [Compound 84] = 36
OC[C@H]1O[C@@H](c2cc3c(c(Cc4ccc(OCF)cc4)c2)OCC3)[C@H](O)[C@@H](O)[C@@H]1F [Compound 133] = 6

Attention now shifts to the item below.
# IC50 (compound: [2H]C([2H])(c1ccc2c(c1)OCCO2)c1cc([C@@H]2O[C@H](CO)[C@@H](F)[C@H](O)[C@H]2O)ccc1CC [Compound 156] ) is 10

----------
# ASSAY_TARGET: human SGLT1 (Homo sapiens, UniProt P13866)
# Sequence (P13866 1-664): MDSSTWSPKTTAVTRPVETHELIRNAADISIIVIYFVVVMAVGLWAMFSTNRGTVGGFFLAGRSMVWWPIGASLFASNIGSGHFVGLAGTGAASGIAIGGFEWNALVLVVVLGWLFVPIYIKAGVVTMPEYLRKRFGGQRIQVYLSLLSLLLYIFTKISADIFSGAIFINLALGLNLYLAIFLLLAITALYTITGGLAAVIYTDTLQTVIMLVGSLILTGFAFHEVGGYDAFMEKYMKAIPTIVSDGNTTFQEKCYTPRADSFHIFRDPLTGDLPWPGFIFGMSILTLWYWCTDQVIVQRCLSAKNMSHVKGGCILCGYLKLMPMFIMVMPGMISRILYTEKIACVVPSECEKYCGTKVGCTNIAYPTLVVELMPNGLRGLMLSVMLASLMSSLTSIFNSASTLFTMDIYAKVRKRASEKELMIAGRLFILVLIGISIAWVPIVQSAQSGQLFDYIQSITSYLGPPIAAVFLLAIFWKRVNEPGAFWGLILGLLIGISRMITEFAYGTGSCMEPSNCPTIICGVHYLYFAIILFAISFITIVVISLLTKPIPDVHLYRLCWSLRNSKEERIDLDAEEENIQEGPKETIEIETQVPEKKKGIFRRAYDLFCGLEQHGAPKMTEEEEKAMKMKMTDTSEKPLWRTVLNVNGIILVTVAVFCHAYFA
# PROTOCOL_NOTES: SGLT1 assay: Na-dependent 14C-AMG uptake in CHO-K1 cells stably expressing human SGLT1
# MEASUREMENT_PARAMETERS: average if tested more than once
We label by threshold. Values of IC50 strictly beneath 70 nM are satisfied. Values of 70 nM and up are not satisfied.

Solved entries:
Cc1cc(O)c([C@@H]2O[C@H](CF)[C@@H](F)[C@H](O)[C@H]2O)cc1Cc1cc2ccccc2s1 = not satisfied
COc1c(Cc2ccc3c(c2)SCCO3)cc([C@@H]2O[C@H](CO)[C@@H](F)[C@H](O)[C@H]2O)c2c1CCO2 = not satisfied
CCc1cc(O)c([C@@H]2O[C@H](CO)[C@@H](F)[C@H](O)[C@H]2O)cc1Cc1cc2ccccc2s1 = satisfied
OC[C@H]1O[C@@H](c2cc(Cc3ccc4c(c3)CCCO4)c(Cl)c3c2OCC3)[C@H](O)[C@@H](O)[C@@H]1F = not satisfied

(Q) Lab log: compare recorded IC50 with 70 nM; is it strictly lower for Cc1cc(O)c([C@@H]2O[C@H](CO)[C@@H](F)[C@H](O)[C@H]2O)cc1Cc1cc2c(s1)CCN(C(=O)N1CCCC1)C2 ?
(A) satisfied

----------
# ASSAY_TARGET: human SGLT2 (Homo sapiens, UniProt P31639)
# Construct: expressed in transfected cells
# Sequence (P31639 whole entry): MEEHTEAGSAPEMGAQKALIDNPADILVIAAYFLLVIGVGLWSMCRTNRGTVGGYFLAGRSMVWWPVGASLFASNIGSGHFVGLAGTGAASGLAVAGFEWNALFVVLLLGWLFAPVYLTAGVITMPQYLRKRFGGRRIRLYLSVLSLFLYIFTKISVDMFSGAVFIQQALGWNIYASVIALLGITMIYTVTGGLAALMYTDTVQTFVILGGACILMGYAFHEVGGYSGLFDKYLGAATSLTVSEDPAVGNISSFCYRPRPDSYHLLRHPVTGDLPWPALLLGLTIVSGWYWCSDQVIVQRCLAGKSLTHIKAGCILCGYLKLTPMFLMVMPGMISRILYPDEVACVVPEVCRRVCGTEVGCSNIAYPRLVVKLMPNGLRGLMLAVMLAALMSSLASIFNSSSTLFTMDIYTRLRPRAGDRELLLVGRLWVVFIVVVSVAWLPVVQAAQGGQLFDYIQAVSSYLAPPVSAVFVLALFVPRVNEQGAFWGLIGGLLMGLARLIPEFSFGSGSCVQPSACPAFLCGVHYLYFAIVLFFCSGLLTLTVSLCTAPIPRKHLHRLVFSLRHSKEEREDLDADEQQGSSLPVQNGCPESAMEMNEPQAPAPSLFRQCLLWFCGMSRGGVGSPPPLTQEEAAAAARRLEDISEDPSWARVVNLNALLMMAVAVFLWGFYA
# PROTOCOL_NOTES: SGLT2 assay: Na-dependent 14C-AMG uptake in CHO-K1 cells stably expressing human SGLT2
# Type: cell-based
# MEASUREMENT_PARAMETERS: @ 0.3 μM
Readings of inhibition at 0.3 µM for the listed compounds
Reply with a number, then the unit it belongs to.

Please review the entries below; each comes with its answer.
Cc1ccc([C@@H]2O[C@H](CO)[C@@H](F)[C@H](O)[C@H]2O)cc1Cc1cc2c(s1)CCN(C(=O)c1nccs1)C2 [Compound 109] = 72.7%
OCC1COc2c(Cc3ccc4c(c3)OCCO4)cc([C@@H]3O[C@H](CO)[C@@H](F)[C@H](O)[C@H]3O)cc21 (stereo partly drawn) [Compound 75] = 43.7%
COc1c(Cc2ccc3c(c2)CCCO3)cc([C@@H]2O[C@H](CO)[C@@H](F)[C@H](O)[C@H]2O)c2c1CCO2 [Compound 126] = 16.8%
CCOc1c(Cc2ccc3c(c2)OCCO3)cc([C@@H]2O[C@H](CO)[C@@H](F)[C@H](O)[C@H]2O)c2c1CCO2 [Compound 102] = 40.7%
OC[C@H]1O[C@@H](c2cc(Cc3ccc4c(c3)OCCO4)c(O)c3c2OCC3)[C@H](O)[C@@H](O)[C@@H]1F [Compound 98] = 26%

Field inhibition at 0.3 µM (entry Cc1ccc([C@@H]2O[C@H](CO)[C@@H](F)[C@H](O)[C@H]2O)cc1Cc1cc2c(s1)CCN(C#N)C2 [Compound 92] ) reads 76.2%
